# Species: Rattus norvegicus
# Method Summary: DrugMatrix - Regimen: Daily Repeat
# Format: toxicity, organism-based, Sprague-Dawley
# Design: regimen Daily Repeat, gender Male, age 6-8 weeks
# Conditions: in vivo, po, 0 mg/kg, 72 h, tissue Plasma, route oral GAVAGE, dose level Control, time 3 day, […]
Measured Parameter: TOTAL BILIRUBIN (mg/dL)

[
  {
    "Compound": "CCOC(=O)C1=C(C)NC(C)=C(C(=O)OC)C1c1cccc([N+](=O)[O-])c1 (configuration not stated) [NITRENDIPINE]",
    "Reading Unit": "mg/dL",
    "Observed Value": 0.2
  },
  {
    "Compound": "Clc1ccc(Cl)cc1 [1,4-DICHLOROBENZENE]",
    "Reading Unit": "mg/dL",
    "Observed Value": 0.43
  },
  {
    "Compound": "Cc1cccc(Nc2ccncc2S(=O)(=O)NC(=O)NC(C)C)c1 [TORSEMIDE]",
    "Reading Unit": "mg/dL",
    "Observed Value": 0.18
  },
  {
    "Compound": "CC(C)(Oc1ccc(C2CCCc3ccccc32)cc1)C(=O)O (configuration not stated) [NAFENOPIN]",
    "Reading Unit": "mg/dL",
    "Observed Value": 0.2
  },
  {
    "Compound": "CC/C(=C(/CC)c1ccc(O)cc1)c1ccc(O)cc1 [DIETHYLSTILBESTROL]",
    "Reading Unit": "mg/dL",
    "Observed Value": 0.17
  },
  {
    "Compound": "C[C@]12CC[C@@H]3c4ccc(O)cc4CC[C@H]3[C@@H]1CC[C@@H]2O [ESTRADIOL]",
    "Reading Unit": "mg/dL",
    "Observed Value": 0.18
  },
  {
    "Compound": "S=C=Nc1cccc2ccccc12 [1-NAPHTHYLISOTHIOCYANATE]",
    "Reading Unit": "mg/dL",
    "Observed Value": 0.12
  },
  {
    "Compound": "C[C@H]1O[C@@H](O[C@H]2[C@@H](O)C[C@H](O[C@H]3[C@@H](O)C[C@H](O[C@H]4CC[C@@]5(C)[C@H](CC[C@@H]6[C@@H]5CC[C@]5(C)[C@@H](C7=CC(=O)OC7)CC[C@]65O)C4)O[C@@H]3C)O[C@@H]2C)C[C@H](O)[C@@H]1O [DIGITOXIN]",
    "Reading Unit": "mg/dL",
    "Observed Value": 0.13
  },
  {
    "Compound": "CC(=O)Nc1ccc(O)cc1 [ACETAMINOPHEN]",
    "Reading Unit": "mg/dL",
    "Observed Value": 0.2
  },
  {
    "Compound": "CCCCCCCCc1ccc(O)cc1 [4-OCTYLPHENOL]",
    "Reading Unit": "mg/dL",
    "Observed Value": 0.18
  },
  {
    "Compound": "CC(=O)Nc1cccc(O)c1 [METACETAMOL]",
    "Reading Unit": "mg/dL",
    "Observed Value": 0.23
  },
  {
    "Compound": "COc1ccc2[nH]c([S+]([O-])Cc3ncc(C)c(OC)c3C)nc2c1 (configuration not stated) [OMEPRAZOLE]",
    "Reading Unit": "mg/dL",
    "Observed Value": 0.2
  }
]

Reference source: ChEMBL document CHEMBL3885881
